Overview of recorded Response for various binders
- Target system: T1, biotinylated recombinant human IL-12Rβ2 (human, UniProt Q99665 24-622, random biotinylated)
- T1 construct: Recombinant protein produced in-house; also called hIL-12RB2; human IL-12RB2
- T1 sequence: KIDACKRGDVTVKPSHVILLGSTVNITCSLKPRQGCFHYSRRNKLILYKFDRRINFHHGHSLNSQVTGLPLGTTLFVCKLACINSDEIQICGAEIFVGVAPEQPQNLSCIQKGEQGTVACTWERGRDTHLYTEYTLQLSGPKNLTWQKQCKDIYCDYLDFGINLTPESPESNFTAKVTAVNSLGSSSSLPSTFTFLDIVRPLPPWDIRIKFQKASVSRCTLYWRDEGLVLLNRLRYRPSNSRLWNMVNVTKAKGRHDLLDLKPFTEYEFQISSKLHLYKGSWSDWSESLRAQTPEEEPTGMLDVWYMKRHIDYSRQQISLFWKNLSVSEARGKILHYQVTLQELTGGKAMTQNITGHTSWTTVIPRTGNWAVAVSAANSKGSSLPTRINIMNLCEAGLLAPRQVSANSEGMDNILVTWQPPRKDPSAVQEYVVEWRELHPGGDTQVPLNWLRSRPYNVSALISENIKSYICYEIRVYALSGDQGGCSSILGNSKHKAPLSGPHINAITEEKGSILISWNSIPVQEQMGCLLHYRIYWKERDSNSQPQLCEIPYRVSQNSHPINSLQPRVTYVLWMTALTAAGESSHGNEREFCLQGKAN
- Assay details: BLI, P.E., off-rate ranking
Reply with the value as a number alone.

Examples from the recorded data:
* anti-IL-12Rβ2 VHH clone 3CRHS77 (clone ID 20425) (VHH, not shown: small tags and cut ends, periplasmic extract) VHH: QVQLQESGGGLVQAGGSLRLSCTASGHTFSSYTTIGWFRQAPGKEREFVAAIGWSGDITDYADAVKGRFTISRHNVENTVYLQMNSLNPEDTAVYYCARGYSEYGVLSRNRGLYAYWGQGTQVTVSS | 0.551
* anti-IL-12Rβ2 VHH clone 3CAHS142 (clone ID 20401) (VHH, not shown: small tags and cut ends, periplasmic extract) VHH: QVQLQESGGGLVQAGESLTLSCIASGVIKDYAMGWFRQAPGKEREFVAAISWSGVSIYYADSVKGRFTISRDNAKNTVYLQMNSLEPEDTAVYYCAGTEGAYTVAGGSTFGYDMDYWGKGTQVTVSS | 0.352
* anti-IL-12Rβ2 VHH clone 3CRHS106 (clone ID 20429) (VHH, not shown: small tags and cut ends, periplasmic extract) VHH: QVQLQESGGGLVQPGGSLRLSCKASGFTFSTYAMSWVRQAPGKGLEWVSAVNSGGLSTDYADSVEGRFTISRDDAKNMLFLQMNSLKPEDTARYYCAKYEDCSDYMCHRDRAGYWGQGTQVTVSS | 0.297

In plain terms, anti-IL-12Rβ2 VHH clone 2CRH41 (clone ID 20365) (VHH, not shown: small tags and cut ends, periplasmic extract) VHH: QVQLQESGGGLVQPGGSLRLSCTASGFAFSSYWMYWVRQSPEKGFEWVSVVDTDGGITYYADSVKGRFTISRDNAKNTLYLQMNSLKPQDTALYYCARDRTTLEYTRTYYRTGQGTQVTVSS has a documented Response of 0.493
